List of IC50 values.
Target: Alpha-2B adrenergic receptor (Homo sapiens)
Sequence (P18089 whole entry): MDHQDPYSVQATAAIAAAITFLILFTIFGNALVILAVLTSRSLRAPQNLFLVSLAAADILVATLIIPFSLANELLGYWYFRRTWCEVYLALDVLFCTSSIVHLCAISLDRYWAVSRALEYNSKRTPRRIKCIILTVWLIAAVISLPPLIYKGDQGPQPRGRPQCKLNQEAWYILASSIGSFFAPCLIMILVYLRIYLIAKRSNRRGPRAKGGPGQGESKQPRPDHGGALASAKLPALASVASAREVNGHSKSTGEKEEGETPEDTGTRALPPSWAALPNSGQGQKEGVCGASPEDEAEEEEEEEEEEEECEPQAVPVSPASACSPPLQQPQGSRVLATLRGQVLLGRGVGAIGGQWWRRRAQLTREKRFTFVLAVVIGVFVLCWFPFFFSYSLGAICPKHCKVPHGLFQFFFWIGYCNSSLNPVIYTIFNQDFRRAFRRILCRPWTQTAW
Test: Binding affinity at human Alpha-2B adrenergic receptor in CHO cells by [3H]rauwolscine (1 nM) displacement.
// unit must come after the numeric part

COMPOUND_SMILES	TGT	IC50
O=c1c(CCN2CCc3oc4ccccc4c3C2)c(Cc2ccccc2)nc2ccccn12	Alpha-2B adrenergic receptor (Homo sapiens)	4.17 nM

GET /values?readout=IC50&item= Cc1nc2cccc(C)n2c(=O)c1CCN1CCc2oc3ccccc3c2C1
1.48 nM

GET /values?readout=IC50&item= Cc1nc2c(O)cccn2c(=O)c1CCN1CCc2oc3ccccc3c2C1
1.74 nM

GET /values?readout=IC50&item= Cc1nc2c(C)cccn2c(=O)c1CCN1CCc2oc3ccccc3c2C1
2.14 nM

GET /values?readout=IC50&item= Cc1nc2ccccn2c(=O)c1CCCN1CCc2oc3ccccc3c2C1
10.7 nM

GET /values?readout=IC50&item= Cc1nc2ccc(Br)cn2c(=O)c1CCN1CCc2oc3ccccc3c2C1
1.35 nM

----------
target: Alpha-2C adrenergic receptor (Homo sapiens); test: biochemical
Sequence (P18825 whole entry): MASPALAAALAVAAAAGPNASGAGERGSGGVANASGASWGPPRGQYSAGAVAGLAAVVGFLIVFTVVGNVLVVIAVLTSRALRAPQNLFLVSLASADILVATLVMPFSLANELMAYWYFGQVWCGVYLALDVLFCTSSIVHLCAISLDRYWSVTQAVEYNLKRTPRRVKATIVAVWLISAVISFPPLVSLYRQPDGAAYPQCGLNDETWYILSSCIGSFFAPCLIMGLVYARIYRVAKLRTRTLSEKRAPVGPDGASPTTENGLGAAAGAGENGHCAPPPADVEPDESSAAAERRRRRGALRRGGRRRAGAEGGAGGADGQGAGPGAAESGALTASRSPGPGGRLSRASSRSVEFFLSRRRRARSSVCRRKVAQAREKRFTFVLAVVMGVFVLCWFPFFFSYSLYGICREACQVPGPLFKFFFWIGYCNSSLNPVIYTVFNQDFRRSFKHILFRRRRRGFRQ
MEASURED_ENDPOINT: log10 of IC50 (log10 of the value in nM)
In our notation, the value equals log10 of IC50 in nM.

Take a look at these entries with their results.
MOLECULE	REPORTED_VALUE
Cc1nc2c(C)cccn2c(=O)c1CCN1CCc2oc3ccccc3c2C1	0.12
Cc1nc2ccccn2c(=O)c1CCCN1CCc2oc3ccccc3c2C1	0.82
CN1CCN2c3ncccc3Cc3ccccc3C2C1 (stereo not drawn)	2.30
Cc1nc2ccc(Cl)cn2c(=O)c1CCN1CCc2oc3ccccc3c2C1	-0.14

GET /values?readout=log10 of IC50&item= Cc1ccc2nc(C)c(CCN3CCc4oc5ccccc5c4C3)c(=O)n2c1
0.11

GET /values?readout=log10 of IC50&item= Cc1nc2cccc(C)n2c(=O)c1CCN1CCc2oc3ccccc3c2C1
0.03

GET /values?readout=log10 of IC50&item= Cc1nc2ccc(Br)cn2c(=O)c1CCN1CCc2oc3ccccc3c2C1
-0.16

GET /values?readout=log10 of IC50&item= O=c1c(CCN2CCc3oc4ccccc4c3C2)c(Cc2ccccc2)nc2ccccn12
0.43

----------
target: Alpha-1A adrenergic receptor (Homo sapiens); test: Binding affinity at human Alpha-1A adrenergic receptor in CHO cells uby [3H]prazosin (0.25 nM) displacement.
Sequence (P35348 whole entry): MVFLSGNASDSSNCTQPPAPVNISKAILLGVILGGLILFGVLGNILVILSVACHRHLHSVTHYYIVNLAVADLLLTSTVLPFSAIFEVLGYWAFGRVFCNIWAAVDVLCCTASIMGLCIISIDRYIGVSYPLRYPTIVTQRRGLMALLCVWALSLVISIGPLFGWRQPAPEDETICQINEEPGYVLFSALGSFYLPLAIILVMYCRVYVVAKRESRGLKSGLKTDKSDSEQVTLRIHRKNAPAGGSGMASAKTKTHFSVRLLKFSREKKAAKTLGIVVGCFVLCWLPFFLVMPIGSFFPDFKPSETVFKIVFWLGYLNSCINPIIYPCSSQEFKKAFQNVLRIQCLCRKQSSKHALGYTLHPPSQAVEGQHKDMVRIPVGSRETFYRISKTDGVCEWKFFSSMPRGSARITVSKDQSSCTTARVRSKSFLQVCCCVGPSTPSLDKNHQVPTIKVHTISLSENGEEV
MEASURED_ENDPOINT: pIC50
For clarity, pIC50 is expressed as the negative log10 of concentration in mol/L.

Take a look at these entries with their results.
MOLECULE	pIC50
COc1cccn2c(=O)c(CCN3CCc4oc5ccccc5c4C3)c(C)nc12	6.94
Cc1nc2c(C)cccn2c(=O)c1CCN1CCc2oc3ccccc3c2C1	6.16

What is its pIC50 for Alpha-1A adrenergic receptor (Homo sapiens)? Entry: Cc1ccc2nc(C)c(CCN3CCc4oc5ccccc5c4C3)c(=O)n2c1
6.54

What is its pIC50 for Alpha-1A adrenergic receptor (Homo sapiens)? Entry: Cc1nc2cccc(C)n2c(=O)c1CCN1CCc2oc3ccccc3c2C1
6.40
